- system-tested: human recombinant CBL-b (human Biotin CBL-b recombinant protein a.a. 39-426) (Homo sapiens, UniProt Q13191)
- Construct: human Biotin CBL-b recombinant protein a.a; 39-426; Biotin (biotinylated)
- Sequence (Q13191 39-426): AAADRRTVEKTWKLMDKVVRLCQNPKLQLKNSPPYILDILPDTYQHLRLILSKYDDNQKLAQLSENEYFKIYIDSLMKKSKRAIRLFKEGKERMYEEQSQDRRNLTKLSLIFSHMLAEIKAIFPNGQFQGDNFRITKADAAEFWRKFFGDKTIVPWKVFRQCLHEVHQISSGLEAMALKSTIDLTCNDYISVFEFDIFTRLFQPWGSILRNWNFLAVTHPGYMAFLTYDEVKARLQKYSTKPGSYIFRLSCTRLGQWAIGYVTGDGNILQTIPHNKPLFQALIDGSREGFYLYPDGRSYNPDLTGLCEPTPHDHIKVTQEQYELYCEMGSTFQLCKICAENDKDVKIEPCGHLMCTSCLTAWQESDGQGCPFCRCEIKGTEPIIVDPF
- assay-summary: Biochemical assay for CBL-b inhibition (ligand displacement TR-FRET)
- assay-setup: 50 nM CBL-b, 0.3 μM Bodipy FL-Probe, read-out: IC50 (CBL-b inhibition, group)
assay-readout: IC50

Data request: If you can, please state the reported IC50 value of C[C@@H](NC1CCCC1)c1cc(Cl)nc(N2Cc3ccc(C4(Cc5nncn5C)COC4)cc3C2=O)c1 (single isomer, unassigned) .
Data returned: < 80 nM

Data request: Also C[C@@H]1CN(Cc2cc(N3Cc4ccc(C5(Cc6nncn6C)COC5)cc4C3=O)nc(C(F)(F)F)c2)C[C@H](C)O1 ?
Data returned: 300 to 5000 nM

Data request: Also C[C@@H](NC[C@@H]1CCCO1)c1cc(Cl)nc(N2Cc3ccc(C4(Cc5nncn5C)COC4)cc3C2=O)c1 (single isomer, unassigned) ?
Data returned: < 80 nM
